Quick reference for TGI among some compounds
Tested on: KM12 colon
protocol-description: NCI tumour cell line growth inhibition, 48 h
quantity-measured: TGI

INSERT INTO measurements (compound, observed_measurement) VALUES
  ('N#CC1CCN2N=C(c3ccccc3)SC12c1ccccc1 (stereo not drawn)', '> 100 µM'),
  ('O=c1c2cc(Br)cc(Br)c2[nH]c(=S)n1-c1ccccc1', '> 100 µM'),
  ('COc1ccc(C2=NN(c3ccccc3)C(c3cc4cc(Br)ccc4nc3Cl)C2)cc1 (stereo not drawn)', '> 25 µM'),
  ('COc1cccc(C2C3=C(COC3=O)N(CCO)c3cc4c(cc32)OCCO4)c1 (stereo not drawn)', '1.85 µM'),
  ('CSc1nc2c(N)ncnc2n1C', '> 100 µM'),
  ('C=C(CS(=O)(=O)c1ccccc1)[P+](c1ccccc1)(c1ccccc1)c1ccccc1', '29 µM'),
  ('Nc1ncnc2c1ncn2C1CCC(CO)O1 (stereo not drawn)', '> 100 µM'),
  ('CC1=C[C@]2(CC(C)C3C(CC4(C)C5CCC6C(C)(C)C(=O)CC[C@@]67C[C@@]57CC[C@]34C)O2)OC1=O (stereo partly drawn)', '> 100 µM');
